Test system: gabapentin binding site
Experiment: Gabapentin binding assay: displacement of [3H]-gabapentin from its binding site
Settings: compound 10 μM in the test batch; [3H]-gabapentin 10 nM; homogenate 0.6 mg/ml protein; 40 minutes at room temperature
measurement-type: Gabapentin [%] inhibition (%)
Reply with just the number (in %).

Please state recorded Gabapentin [%] inhibition (tested on gabapentin binding site) of CN1CCN(CC2CCCCCCC2(O)Cc2ccc(Cl)cc2Cl)CC1 (stereo not drawn)
48

Record: CN1CCN(CC2CCCCCCCCCCC2(O)Cc2ccccc2)CC1 (stereo not drawn)
56

Record: CN1CCN(CC2CCCCCCC2(O)Cc2ccccc2Cl)CC1 (stereo not drawn)
61

Record: CN1CCN(CC2CCCCCC2(O)Cc2ccc(Cl)cc2Cl)CC1 (stereo not drawn)
48

Record: CN1CCN(CC2CCCCCC2(O)Cc2ccccc2Cl)CC1 (stereo not drawn)
74

Record: CN1CCN(CC2CCCCCC2(O)Cc2cccc(F)c2)CC1 (stereo not drawn)
44
